molecular target: T1, Ebola virus GP with a C-terminal polyhistidine tag (Sino Biologicals, Catalog #40442-V08B1) (Ebola virus, UniProt P87666 33-650); assay: SPR 25C, mAb captured
T1 construct: also called EbolaGP.his; Ebola virus GP.his
Entries and their t½

- Binder: "H1M17354N (antibody, V domains shown, also called HCAF05C08-22) VH: QVQLVQSGAEVKKPGASVKVSCKASGYTFTSYYMHWVRQAPGQGLEWLGIINPSGGSTSYAQKFQGRVTMTRDTSTSTVYMELSSLRSEDTAVYYCARETGEAGEVFNYWGQGTQVTVSS VL: DIQMTQSPSSLSASVGDRVTITCRASQIISRYLNWYQHKPGKAPKVLIYAASTLQSGVPSRFSGSGSGTDFTLTISSLQPEDFATYYCQQSYSTPPITFGQGTRLEIK"
  t½: "3.7 min"

Q. State the recorded t½ for this entry: H1H17162P (antibody, V domains shown) VH: EVQLVESGGGLVQPGGSLRLSCAASEFTFSSYAMSWVRQAPGKGLEWVSAISGSSGSTYYADSVKGRFTISRDNSKKTLYLQMNSLRVEDTAVYYCAKGGYPHSFDIWGHGTMVTVSS VL: DIQMTQSPSSLSASVGDRVTITCRASQSISSFLNWYQQKPGKAPKLLIYAASSLQSGVPSRFSGSGSGTDFTLTISSLQPEDFATYYCQQSYSSITFGQGTRLEIK
A. ≥ 1160 min

The reported numbers originate from patent US20160215040A1.
